FYI, the data here is from paper PMC5378893.

molecular target: T1, extracellular domain (ECD) of human epidermal growth factor receptor 2 (HER2) (Homo sapiens, UniProt P04626); assay: SPR; BIAcore T200; HER2/ECD immobilised on a CM5 chip by amine coupling to 1000 RU; IgG flowed in PBST (0.05% Tween 20) at 30 uL/min; regeneration 10 mM glycine pH 1.5; global fit to a 1:1 binding model; conditions: both partners purified
T1 construct: human epidermal growth factor receptor 2 (HER2), extracellular domain; also called HER2/ECD
Known koff of a selection of binders
Write the answer as a number in s⁻¹, unit excluded.

Solved entries (count: 2):
* GH2-104 IgG (antibody, V domains shown, source: HEK293-F, transient transfection, purified (Protein A, Superdex 200)) VH: EVQLVESGGGLVQPGGSLRLSCAASGFTIDSWGIHWVRQAPGKGLEWVAGIGPFGGYTSYADSVKGRFTISADTSKNTAYLQMNSLRAEDTAVYYCARFGDYIDGVMDYWGQGTLVTVSS VL: DIQMTQSPSSLSASVGDRVTITCRASQDVNSNVAWYQQKPGKAPKLLIYGSPSLYSGVPSRFSGSGSGTDFTLTISSLQPEDFATYYCQQYYDWPLTFGQGTKVEIK | 0.000884
* M62 IgG (mouse anti-HER2/ECD) (antibody, V domains shown, mouse VL; L49~L53 HSASY; L91~L96 YNSYPL; mouse VH; H50~H58 EIYPGGGNPY; H96~H100B YKYDVS; recombinant IgG from a scFv of an immunized mouse's phage library; source: HEK293-F, transient transfection, purified (Protein A, Superdex 200)) VH: EVQLQQSGTELARPGASVKLSCKASGYTFIDYYITWVKQRTGQGLEWIGEIYPGGGNPYYNDNFKGKASLTADKSSNTVYMQLSSLTSEDSAVYFCARSYKYDVSVYWGQGTLVTVSA VL: DIQMIQSQKFMSTSVGDRVSVTCKASQNVGTNVAWYQQKPGQSPKALIHSASYRYSGVPDRFTGSGSGTDFTLTISNVQSEDLAEYFCQQYNSYPLTFGAGTKLEIK | 1.8e-05

**Query** Any idea what koff was measured for GH2-14 IgG (antibody, V domains shown, source: HEK293-F, transient transfection, purified (Protein A, Superdex 200)) VH: EVQLVESGGGLVQPGGSLRLSCAASGFTINDHGIHWVRQAPGKGLEWVAGIGPFGGYTSYADSVKGRFTISADTSKNTAYLQMNSLRAEDTAVYYCARFNFNDVGGMDYWGQGTLVTVSS VL: DIQMTQSPSSLSASVGDRVTITCRASQDVGGGVAWYQQKPGKAPKLLISGPPYLYSGVPSRFSGSGSGTDFTLTISSLQPEDFATYYCQQYFNYPITFGQGTKVEIK ?
**Result** 0.00573
